- system: T1, human PD-L1-his tag protein (human, UniProt Q9NZQ7 19-238)
- T1 construct: also called human PD-L1-His protein; recombinant PD-L1 protein; not shown: his tag
- T1 sequence (Q9NZQ7 19-238 limits assumed): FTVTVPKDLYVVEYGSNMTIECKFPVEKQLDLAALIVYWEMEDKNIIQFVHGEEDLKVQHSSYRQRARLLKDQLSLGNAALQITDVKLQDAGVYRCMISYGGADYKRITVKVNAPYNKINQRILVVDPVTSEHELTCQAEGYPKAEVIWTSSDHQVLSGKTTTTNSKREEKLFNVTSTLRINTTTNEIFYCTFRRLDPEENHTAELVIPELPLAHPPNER
- test_protocol: SPR (Biacore), affinity ranking, PDL1-His
Quick reference for koff among some binders
Form entry: value (s⁻¹) — number only.

Completed entries (count: 2):
Entry Hu67F3G7-1 (antibody, V domains shown, humanized) VH: EVQLVQSGAEVKKPGASVKVSCKASGYTFTDFWVSWVRQAPGQGLEWMGEIYPNSGVSRYNEKFKGRVTMTVDKSISTAYMELSRLRSDDTAVYYCARYFGYTYWFGYWGQGTLVTVSS VL: DIQMTQSPSSLSASVGDRVTITCRASKSVSTYMHWYQQKPGKAPKLLIYSASHLESGVPSRFSGSGSGTDFTLTISSLQPEDFATYYCQQSNELPVTFGGGTKVEIK : reported koff = ?
0.000121

Entry Hu67F3G7-21 (antibody, V domains shown, humanized) VH: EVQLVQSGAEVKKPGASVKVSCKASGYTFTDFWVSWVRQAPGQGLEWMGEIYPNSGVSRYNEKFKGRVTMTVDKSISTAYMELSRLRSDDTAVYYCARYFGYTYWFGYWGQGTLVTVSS VL: DIQMTQSPSSLSASVGDRVTITCRASKSVSTYMHWYQQKPGKQPKLLIYSASHLESGVPSRFSGSGSGTDFTLTISSLQPEDFATYYCQQSNELPVTFGGGTKVEIK : reported koff = ?
8.43e-05

Here is another binder to look at.
Entry Hu67F3G7-4 (antibody, V domains shown, humanized) VH: EVQLVQSGAEVKKPGASVKVSCKASGYIFTDFWVSWVRQAPGQGLEWIGEIYPNSGVSRYNEKFKGRVTMTVDKSISTAYMELSRLRSDDTAVYYCARYFGYTYWFGYWGQGTLVTVSS VL: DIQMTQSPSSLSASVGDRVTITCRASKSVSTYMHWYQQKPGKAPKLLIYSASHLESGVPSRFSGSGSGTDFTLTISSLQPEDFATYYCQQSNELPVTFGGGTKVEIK : reported koff = ?
0.000103
